B1: glmS ribozyme (parent)
chain: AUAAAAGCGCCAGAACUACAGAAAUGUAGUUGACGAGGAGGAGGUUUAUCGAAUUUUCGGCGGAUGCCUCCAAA

Variants of: B1
assay_overview: self-cleavage kobs at 2500 uM GlcN6P; higher = faster cleavage; RNA array
condition_context: with glucosamine-6-phosphate
Variants at the floor of the assay were thinned out.
endpoint: self-cleavage kobs at 2500 uM GlcN6P

variant_descriptor	endpoint	result_value
A15G G38U A52U	self-cleavage kobs at 2500 uM GlcN6P	< 1e-05 s⁻¹
G7C G9A A14U C50A	self-cleavage kobs at 2500 uM GlcN6P	< 1e-05 s⁻¹
C11A A42C	self-cleavage kobs at 2500 uM GlcN6P	< 1e-05 s⁻¹
